Assay: Inhibition of Wistar rat lens ALR2 assessed as reduction in NADPH consumption using D,L-glyceraldehyde as substrate incubated for 1 min and measured up to 4 mins by spectrophotometric analysis
Format: tissue-based
Would you mind telling me the reported pIC50 of each entry?
Note: the reply should be a number with no unit written.

q: Given the compound O=C(O)Cn1c2ccccc2c2nn(Cc3ccccc3C(=O)O)c(=O)nc21 , what is its reported pIC50?
a: 6.86

q: For NC(=O)c1ccccc1Cn1nc2c3ccccc3n(CC(=O)O)c2nc1=O then?
a: 6.63

q: For N#Cc1ccccc1Cn1nc2c3ccccc3n(CC(=O)O)c2nc1=O then?
a: 7.12

q: For O=C(O)Cn1c2ccccc2c2nn(Cc3ccccc3CO)c(=O)nc21 then?
a: 6.61

q: For O=C(O)Cn1c2ccccc2c2nn(Cc3ccccc3)c(=O)nc21 then?
a: 6.36

----------
Species on record: Rattus norvegicus
Assay: Selectivity index, ratio of IC50 for Wistar rat kidney ALR1 to IC50 for Wistar rat lens ALR2
Would you mind telling me the reported Ratio IC50 of each entry?

q: Given the molecule O=C(O)Cn1c2ccccc2c2nn(Cc3ccccc3C(=O)O)c(=O)nc21 , what is its reported Ratio IC50?
a: 424

q: For N#Cc1ccccc1Cn1nc2c3ccccc3n(CC(=O)O)c2nc1=O then?
a: > 1330

q: For O=C(O)Cn1c2ccccc2c2nn(Cc3ccccc3)c(=O)nc21 then?
a: > 230

q: For NC(=O)c1ccccc1Cn1nc2c3ccccc3n(CC(=O)O)c2nc1=O then?
a: > 424

q: For O=C(O)Cn1c2ccccc2c2nn(Cc3ccccc3CO)c(=O)nc21 then?
a: > 410

----------
Test system: ALR1
Experiment: Inhibition of Wistar rat kidney ALR1 assessed as reduction in NADPH consumption using sodium D-glucuronate as substrate at 100 uM incubated for 1 min and measured up to 4 mins by spectrophotometric analysis relative to control
Type: tissue-based
Conditions: rat kidney ALR1 (aldehyde reductase) enzyme, probe sodium D-glucuronate
Could you label it YES if measured inhibition at 4 min, 100 µM is 50% or higher, and NO otherwise?

q: Is inhibition at 4 min, 100 µM for O=C(O)Cn1c2ccccc2c2nn(Cc3ccccc3)c(=O)nc21 at or above 50%?
a: NO

q: For O=C(O)Cn1c2ccccc2c2nn(Cc3ccccc3C(=O)O)c(=O)nc21 then?
a: YES

q: For O=C(O)Cn1c2ccccc2c2nn(Cc3ccccc3CO)c(=O)nc21 then?
a: NO
